- System: NOMO1
- ASSAY_INFO: cell viability relative to DMSO control; higher = less cytotoxic
- COND: RPMI 5 mM glucose + 10% FBS; 48 h; 15.4 µM
The following molecules are shown together with reported cell viability values.
Kindly answer with a numeric value in %, unit omitted.

Solved entries (count: 3):
Cc1cc(O)c2c(c1)C(=O)c1cc(O)cc(O)c1C2=O: 85.9
CC[C@@]1(O)C[C@H](O[C@H]2C[C@H](N(C)C)[C@H](O[C@H]3C[C@H](O)[C@H](O[C@H]4CCC(=O)[C@H](C)O4)[C@H](C)O3)[C@H](C)O2)c2c(cc3c(c2O)C(=O)c2c(O)cccc2C3=O)[C@H]1C(=O)OC: 75.8
COc1cc2ncnc(Nc3cccc(Br)c3)c2cc1OC: 112

molecule C[S+]([O-])c1ccc(-c2nc(-c3ccc(F)cc3)c(-c3ccncc3)[nH]2)cc1 (centres undefined) , cell viability observed: 4.04

---

- Tested on: SEM cells
- ASSAY_INFO: cell viability relative to DMSO control; higher = less cytotoxic
- COND: RPMI 5 mM glucose + 10% dialyzed FBS; 48 h; 0.569 µM
PROPERTY_NAME: cell viability (%)
Your answer is read as %, so omit the unit and give the number.

Some compounds with recorded cell viability:
C[C@@H]1CC[C@@]2(OC1)OC1CC3C4CC=C5CC(O)CCC5(C)C4CCC3(C)C1[C@@H]2C (stereo partly specified): 92.4
CC(C)NCC(O)c1ccc(NS(C)(=O)=O)cc1 (stereo unspecified): 111

cell viability in this record for "C=CCn1c(=O)c2cnc(Nc3ccc(N4CCN(C)CC4)cc3)nc2n1-c1cccc(C(C)(C)O)n1" : 52.7

Record "C#Cc1cccc(Nc2ncnc3cc(OC)c(OCCCCCCC(=O)NO)cc23)c1" , field cell viability: 28.8

Given item "CC(=O)[C@H]1CC[C@H]2[C@@H]3CCC4=CC(=O)CC[C@]4(C)[C@H]3CC[C@]12C" , the value recorded as its cell viability is 106

cell viability in this record for "N[C@@H](CC(=O)N1CCn2c(nnc2C(F)(F)F)C1)Cc1cc(F)c(F)cc1F" : 96.8

Kindly note the recorded cell viability for "NCC(=O)Nc1ccc(-n2nc(C(F)(F)F)cc2-c2ccc3c(ccc4ccccc43)c2)cc1" , which is 128

Per the records, this compound ( "O=C(NNC(=O)c1ccc(CN[S+](=O)([O-])c2ccc(F)c(Cl)c2)cc1)c1ccccc1" ) has cell viability equal to 93.1

// cell viability value for "Cc1cc(Cl)ccc1OCCCC(=O)NO" : 105

Data point: "COC(=O)[C@@H](N)CCCNC(=N)N[N+](=O)[O-]" ; cell viability = 99

cell viability reported for this compound "CN[S+](=O)([O-])CCc1ccc2[nH]cc(C3CCN(C)CC3)c2c1" : 90.9

// sample "COC[C@H]1OC(=O)C2=COC3=C2[C@@]1(C)\C4=C(\[C@@H]5CC[C@H](O)[C@@]5(C)C[C@H]4OC(C)=O)C3=O" , its cell viability was 104

// "CC(C)C[C@H](NC(=O)[C@H](Cc1ccccc1)NC(=O)c1cnccn1)B(O)O" : cell viability value = 4.12

Consider "Cc1cn(CCN2CCN(c3ccccc3-c3cc(C#N)cc(C(=O)NCCCN4CCCC4)c3)CC2)c2ccccc12" . Its measured cell viability is 128

Summary for this compound, CC(C)NCC(O)COc1ccc(CCOCC2CC2)cc1 (stereo unspecified) : cell viability is 125
